Origin of values: ChEMBL document CHEMBL2413051

System: Enterococcus faecalis
Assay: microbe, parasite or virus in culture
Assay type: functional
Settings: ATCC 19433
Description: Antimicrobial activity against vancomycin-sensitive Enterococcus faecalis ATCC 19433 by broth microdilution method
Friendly reminder: MIC below 4 µg/mL is class 1, at or above is class 0.

| smiles.notation | experimental.target | assigned.label |
| --- | --- | --- |
| CC(=N)NCc1cccc2c(-c3ccc(C(C)(C)C)cc3)ncnc12 | Enterococcus faecalis | class 0 |
| C[n+]1ccnc2ccccc21.[I-] | Enterococcus faecalis | class 0 |
| Cc1onc(-c2ccccc2)c1C(=O)N[C@@H]1C(=O)N2[C@@H]1SC(C)(C)[C@@H]2C(=O)O | Enterococcus faecalis | class 0 |
| C[n+]1cc(-c2ccc(C(C)(C)C)cc2)nc2ccccc21.[I-] | Enterococcus faecalis | class 0 |
| CC(C)(C)c1ccc(-c2ncnc3c(CN)cccc23)cc1 | Enterococcus faecalis | class 0 |
| c1ccc(-c2cccc(-c3cnc4ccccc4n3)c2)cc1 | Enterococcus faecalis | class 0 |
| Fc1cccc(-c2cnc3ccccc3n2)c1 | Enterococcus faecalis | class 0 |
| CC(C)(C)c1ccc(-c2ccnc3c(CNC(=N)N)ccnc23)cc1 | Enterococcus faecalis | class 0 |
| CC(C)(C)c1ccc(-c2ncnc3c(CNC(=N)N)cccc23)cc1 | Enterococcus faecalis | class 0 |
| CC(C)(C)c1cccc(-c2cnc3ccccc3n2)c1 | Enterococcus faecalis | class 0 |
| CN[C@H](CC(C)C)C(=O)N[C@H]1C(=O)N[C@@H](CC(N)=O)C(=O)N[C@H]2C(=O)N[C@H]3C(=O)N[C@H](C(=O)N[C@H](C(=O)O)c4cc(O)cc(O)c4-c4cc3ccc4O)[C@H](O)c3ccc(c(Cl)c3)Oc3cc2cc(c3O[C@@H]2O[C@H](CO)[C@@H](O)[C@H](O)[C@H]2O[C@H]2C[C@](C)(N)[C@H](O)[C@H](C)O2)Oc2ccc(cc2Cl)[C@H]1O | Enterococcus faecalis | class 1 |
| CC[C@H]1OC(=O)[C@H](C)[C@@H](O[C@H]2C[C@@](C)(OC)[C@@H](O)[C@H](C)O2)[C@H](C)[C@@H](O[C@@H]2O[C@H](C)C[C@H](N(C)C)[C@H]2O)[C@](C)(O)C[C@@H](C)C(=O)[C@H](C)[C@@H](O)[C@]1(C)O | Enterococcus faecalis | class 1 |
| CCC[C@@H]1C[C@@H](C(=O)N[C@@H]([C@H]2O[C@H](SC)[C@H](O)[C@@H](O)[C@H]2O)[C@H](C)Cl)N(C)C1 | Enterococcus faecalis | class 1 |
| C[n+]1cc(-c2cccc(F)c2)nc2ccccc21.[I-] | Enterococcus faecalis | class 0 |
| CC(C)(C)c1ccc(-c2cnc3ccccc3n2)cc1 | Enterococcus faecalis | class 0 |
| CN(C)[C@@H]1C(O)=C(C(N)=O)C(=O)[C@@]2(O)C(O)=C3C(=O)c4c(O)cccc4[C@@](C)(O)[C@H]3C[C@@H]12 | Enterococcus faecalis | class 1 |
